# Tested on: wheat (Triticum aestivum)
# protocol-details: Test A postemergence
# Type: in vivo
# assay-setup: 125 g ai/ha, postemergence; visual injury rating on 0 to 100 scale (0 no effect, 100 complete control), approx. 10 d
# Text: […]
// values below are reported Wheat plant response rating
Enter the number alone.

compound	system-name	value-observed
O=C1NCC(c2ccc(C(F)(F)F)c(F)c2)C1C(=O)Nc1cccc(F)c1F (racemic)	wheat (Triticum aestivum)	20
O=C1NCC(c2cccc(F)c2F)C1C(=O)Nc1ccc(F)cc1F (stereo not shown)	wheat (Triticum aestivum)	0

Q. Request the reported Wheat plant response rating associated with CC(=O)c1ccccc1NC(=O)C1C(=O)NCC1c1ccc(F)c(F)c1 (stereo not shown)
A. 0

Q. Request the reported Wheat plant response rating associated with CN1CC(c2cccc(Br)c2)C(C(=O)Nc2cccc(F)c2F)C1=O (stereo not shown)
A. 50
